src = patent US7238681B2

- experimental system: full-length recombinant rat vitamin D receptor (Rattus norvegicus)
- Construct: Full-length recombinant rat receptor was expressed in E. coli BL21 (DE3) Codon Plus RIL cells; histidine tag (C)
- Sequence (P13053 1-423): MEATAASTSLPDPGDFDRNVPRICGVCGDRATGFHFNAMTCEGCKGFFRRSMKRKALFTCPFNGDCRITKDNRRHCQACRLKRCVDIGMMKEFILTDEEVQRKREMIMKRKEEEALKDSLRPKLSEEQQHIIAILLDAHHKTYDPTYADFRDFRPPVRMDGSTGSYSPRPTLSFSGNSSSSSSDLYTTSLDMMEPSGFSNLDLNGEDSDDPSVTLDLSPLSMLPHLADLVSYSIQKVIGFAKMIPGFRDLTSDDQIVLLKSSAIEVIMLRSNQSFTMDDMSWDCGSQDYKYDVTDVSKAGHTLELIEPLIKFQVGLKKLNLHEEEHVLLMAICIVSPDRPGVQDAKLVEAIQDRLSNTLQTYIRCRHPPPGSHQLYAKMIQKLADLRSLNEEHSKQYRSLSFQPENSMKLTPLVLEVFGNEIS
- experiment: Vitamin D receptor binding, competition with [3H]-1,25(OH)2D3
- conditions: full-length recombinant rat VDR; FIG. 1
measured metric: Ki (nM)
Answers are plain numbers, in nM.

Sample C=C1[C@H](O)CC(=C/C=C2\CCC[C@@H]3[C@@H](C(C)C)CC[C@@H]23)C[C@H]1O [18,19-dinor-2MP] , system: full-length recombinant rat vitamin D receptor (Rattus norvegicus). Its Ki is 0.22
